Biological target: Yap3 (UniProt P38749)
Sequence: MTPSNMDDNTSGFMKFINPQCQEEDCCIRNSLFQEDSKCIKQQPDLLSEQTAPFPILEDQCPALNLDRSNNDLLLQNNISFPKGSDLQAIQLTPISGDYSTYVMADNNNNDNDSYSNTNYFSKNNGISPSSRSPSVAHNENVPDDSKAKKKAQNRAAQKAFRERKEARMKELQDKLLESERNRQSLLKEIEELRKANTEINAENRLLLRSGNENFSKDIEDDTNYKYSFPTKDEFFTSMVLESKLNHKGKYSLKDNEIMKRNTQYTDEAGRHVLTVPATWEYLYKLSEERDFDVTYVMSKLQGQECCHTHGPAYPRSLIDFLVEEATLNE
Experiment: PBM E-score (8-mer binding enrichment) (E-score (-0.5 to 0.5)); higher = stronger / more preferred TF binding
Details: protein concentration: 100 nM; construct: GST-full length
In all, about 33,000 sequences were measured (“E-score (-0.5 to 0.5)”: median about -0.0034, highest 2% from about 0.25 on). The full list was thinned out, with the highest values kept by preference.
RECORDED_METRIC: PBM E-score

{"SEQUENCE_INPUT": "GCTAATCA", "REPORTED": 0.164}
{"SEQUENCE_INPUT": "AACGAACA", "REPORTED": 0.259}
{"SEQUENCE_INPUT": "GGTCTAGA", "REPORTED": -0.104}
{"SEQUENCE_INPUT": "CTTAATCA", "REPORTED": 0.166}
{"SEQUENCE_INPUT": "ATTAATCG", "REPORTED": 0.191}
{"SEQUENCE_INPUT": "CGCCAACC", "REPORTED": -0.193}
{"SEQUENCE_INPUT": "AACTTGAT", "REPORTED": 0.15}
{"SEQUENCE_INPUT": "ATTAATCC", "REPORTED": 0.0925}
{"SEQUENCE_INPUT": "ATCGTGGG", "REPORTED": 0.11}
{"SEQUENCE_INPUT": "AATTAGAA", "REPORTED": 0.0871}
{"SEQUENCE_INPUT": "CAGAAACC", "REPORTED": 0.0742}
